Value source: patent US20260166039A1

- tested.on: Wee1 kinase domain (Homo sapiens, UniProt P30291)
- Construct: Wee1 kinase domain was purchased from Carna (catalog #05-177); purchased Carna 05-177
- Sequence (P30291 299-569 limits assumed): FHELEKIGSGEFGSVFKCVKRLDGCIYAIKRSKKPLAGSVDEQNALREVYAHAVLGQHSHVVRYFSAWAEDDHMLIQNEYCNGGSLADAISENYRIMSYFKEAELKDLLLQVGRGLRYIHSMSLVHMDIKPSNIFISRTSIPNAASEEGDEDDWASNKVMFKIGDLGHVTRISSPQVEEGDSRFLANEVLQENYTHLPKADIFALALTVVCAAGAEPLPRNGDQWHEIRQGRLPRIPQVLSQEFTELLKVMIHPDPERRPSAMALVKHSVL
- assay.name: Wee1 Kinase Biochemical Assay (ADP-Glo)
- conditions.used: class symbols; 1 nM Wee1 enzyme, 15 uM ATP, 4 hours at 25° C.
measurement.name: IC50

[[record]]
compound = "CN1CC(c2ccc(Nc3ncc4c(n3)N(c3cccc(N5CCCC5=O)n3)[C@H]3CC(C)(C)OC[C@@]43C)cc2)C1"
tested_on = "Wee1 kinase domain (Homo sapiens, UniProt P30291)"
measurement_name = "IC50"
result = "10 to 100 nM"

[[record]]
compound = "CN1C[C@H]2C[C@@H]1CN2c1ccc(Nc2ncc3c(n2)N(c2cccc(N4CCOC4=O)n2)[C@H]2CC(C)(C)OC[C@@]32C)cc1F"
tested_on = "Wee1 kinase domain (Homo sapiens, UniProt P30291)"
measurement_name = "IC50"
result = "10 to 100 nM"

[[record]]
compound = "CNCc1cccc(N2c3nc(Nc4ccc([C@H]5CCNC5)cc4)ncc3[C@]3(C)COC(C)(C)C[C@H]23)n1 (single isomer, unassigned)"
tested_on = "Wee1 kinase domain (Homo sapiens, UniProt P30291)"
measurement_name = "IC50"
result = "100 to 1000 nM"

[[record]]
compound = "CN1C[C@H]2C[C@@H]1CN2c1ccc(Nc2ncc3c(n2)N(c2cccc(N4CCOC4=O)n2)[C@H]2CC(C)(C)OC[C@@]32C)cc1 (single isomer, unassigned)"
tested_on = "Wee1 kinase domain (Homo sapiens, UniProt P30291)"
measurement_name = "IC50"
result = "10 to 100 nM"

[[record]]
compound = "CN[C@@H](C)c1cc(C)nc(N2c3nc(Nc4ccc(N5CCOCC5)cc4)ncc3[C@@]3(C)COC(C)(C)C[C@@H]23)c1 (single isomer, unassigned)"
tested_on = "Wee1 kinase domain (Homo sapiens, UniProt P30291)"
measurement_name = "IC50"
result = "10 to 100 nM"

[[record]]
compound = "Cc1cc(Nc2ncc3c(n2)N(c2cccc(N4CCOC4=O)n2)[C@@H]2CC(C)(C)OC[C@]32C)ccc1N1C[C@H]2C[C@@H]1CN2C"
tested_on = "Wee1 kinase domain (Homo sapiens, UniProt P30291)"
measurement_name = "IC50"
result = "< 10 nM"

[[record]]
compound = "CN1[C@@H]2C[C@H]1CN(c1ccc(Nc3ncc4c(n3)N(c3cccc(N5CCCC5=O)n3)[C@H]3CC(C)(C)OC[C@@]43C)cc1)C2"
tested_on = "Wee1 kinase domain (Homo sapiens, UniProt P30291)"
measurement_name = "IC50"
result = "100 to 1000 nM"

[[record]]
compound = "CC1(C)C[C@H]2N(c3cccc(N4CCCC4=O)n3)c3nc(Nc4ccc(C5CNC5)cc4)ncc3[C@@]2(C)CO1"
tested_on = "Wee1 kinase domain (Homo sapiens, UniProt P30291)"
measurement_name = "IC50"
result = "< 10 nM"

[[record]]
compound = "CC1(C)C[C@@H]2N(c3cccc(N4CCOC4=O)n3)c3nc(Nc4ccc(C5CNC5)cc4)ncc3[C@]2(C)CO1"
tested_on = "Wee1 kinase domain (Homo sapiens, UniProt P30291)"
measurement_name = "IC50"
result = "10 to 100 nM"

[[record]]
compound = "CN1C[C@@H]2CN(c3ccc(Nc4ncc5c(n4)N(c4ccccn4)[C@@H]4CC(C)(C)OC[C@]54C)cc3)C[C@@H]2C1 (single isomer, unassigned)"
tested_on = "Wee1 kinase domain (Homo sapiens, UniProt P30291)"
measurement_name = "IC50"
result = "< 10 nM"

[[record]]
compound = "CNCc1cccc(N2c3nc(Nc4ccc(N5CCN(C)CC5)c(C)c4)ncc3[C@@]3(C)COC(C)(C)C[C@@H]23)n1 (single isomer, unassigned)"
tested_on = "Wee1 kinase domain (Homo sapiens, UniProt P30291)"
measurement_name = "IC50"
result = "< 10 nM"

[[record]]
compound = "CN1C[C@H]2C[C@@H]1CN2c1ccc(Nc2ncc3c(n2)N(c2cccc(N4CCCC4=O)n2)[C@H]2CC(C)(C)OC[C@@]32C)cc1F"
tested_on = "Wee1 kinase domain (Homo sapiens, UniProt P30291)"
measurement_name = "IC50"
result = "10 to 100 nM"

[[record]]
compound = "CN1CC[C@@H](c2ccc(Nc3ncc4c(n3)N(c3cccc(N5CCOC5=O)n3)[C@H]3CC(C)(C)OC[C@@]43C)cc2)C1 (single isomer, unassigned)"
tested_on = "Wee1 kinase domain (Homo sapiens, UniProt P30291)"
measurement_name = "IC50"
result = "10 to 100 nM"

[[record]]
compound = "CN1C[C@H]2C[C@@H]1CN2c1ccc(Nc2ncc3c(n2)N(c2ccn(C)n2)[C@@H]2CC(C)(C)OC[C@]32C)cc1 (single isomer, unassigned)"
tested_on = "Wee1 kinase domain (Homo sapiens, UniProt P30291)"
measurement_name = "IC50"
result = "< 10 nM"

[[record]]
compound = "CN1C[C@@H]2C[C@H]1CN2c1ccc(Nc2ncc3c(n2)N(c2cccc(C4(O)CC4)n2)[C@@H]2CC(C)(C)OC[C@]32C)cc1"
tested_on = "Wee1 kinase domain (Homo sapiens, UniProt P30291)"
measurement_name = "IC50"
result = "< 10 nM"

[[record]]
compound = "CC1(C)C[C@@H]2N(c3cccc(C4(F)CNC4)n3)c3nc(Nc4ccc(N5CCOCC5)cc4)ncc3[C@]2(C)CO1 (single isomer, unassigned)"
tested_on = "Wee1 kinase domain (Homo sapiens, UniProt P30291)"
measurement_name = "IC50"
result = "100 to 1000 nM"

[[record]]
compound = "CN1C[C@H]2C[C@@H]1CN2c1ccc(Nc2ncc3c(n2)N(c2cccc(C4(O)CC4)n2)C2CC(C)(C)OCC32C)cc1 (stereo in doubt)"
tested_on = "Wee1 kinase domain (Homo sapiens, UniProt P30291)"
measurement_name = "IC50"
result = "< 10 nM"

[[record]]
compound = "CC[C@]1(O)CCc2ccc(N3c4nc(Nc5ccc(N6C[C@@H]7C[C@H]6CN7C)cc5)ncc4[C@@]4(C)COC(C)(C)C[C@@H]34)nc21"
tested_on = "Wee1 kinase domain (Homo sapiens, UniProt P30291)"
measurement_name = "IC50"
result = "< 10 nM"

[[record]]
compound = "CN1CC[C@H](OC(=O)Nc2ncc3c(n2)N(c2cccc(N=S(C)(C)=O)n2)[C@@H]2CC(C)(C)OC[C@]32C)C1 (single isomer, unassigned)"
tested_on = "Wee1 kinase domain (Homo sapiens, UniProt P30291)"
measurement_name = "IC50"
result = "10 to 100 nM"

[[record]]
compound = "CC1(C)C[C@@H]2N(c3cccc(N4CCCC4=O)n3)c3nc(Nc4ccc([C@H]5CCNC5)cc4)ncc3[C@]2(C)CO1"
tested_on = "Wee1 kinase domain (Homo sapiens, UniProt P30291)"
measurement_name = "IC50"
result = "10 to 100 nM"

[[record]]
compound = "CNCc1cccc(N2c3nc(Nc4ccc([C@@H]5CCNC5)cc4)ncc3[C@@]3(C)COC(C)(C)C[C@@H]23)n1 (single isomer, unassigned)"
tested_on = "Wee1 kinase domain (Homo sapiens, UniProt P30291)"
measurement_name = "IC50"
result = "< 10 nM"

[[record]]
compound = "CC1(C)C[C@H]2N(c3cccc(N=S(C)(C)=O)n3)c3nc(Nc4ccc(N5C[C@H]6C[C@@H]5CO6)cc4)ncc3[C@@]2(C)CO1 (single isomer, unassigned)"
tested_on = "Wee1 kinase domain (Homo sapiens, UniProt P30291)"
measurement_name = "IC50"
result = "< 10 nM"

[[record]]
compound = "Cc1cncc(Nc2ncc3c(n2)N(c2cccc(N=S(C)(C)=O)n2)[C@@H]2CC(C)(C)OC[C@]32C)c1 (single isomer, unassigned)"
tested_on = "Wee1 kinase domain (Homo sapiens, UniProt P30291)"
measurement_name = "IC50"
result = "< 10 nM"

